Assay: Inhibition of b-TSH-induced C-terminal GFP-tagged mouse TSHR activation expressed in HEK293 cells by cAMP assay
Assay type: cell-based

input.smiles: O=C1[C@@H]2[C@H]3C[C@H]([C@@H]4Sc5[nH]c(=O)sc5[C@@H](c5ccccc5)[C@H]34)[C@@H]2C(=O)N1c1ccccc1
IC50: 40 µM

---

Biological target: Thyrotropin receptor (Homo sapiens)
Test: Agonist activity at N-terminal HA-tagged TSHR (unknown origin) assessed as intracellular calcium level measured for 60 mins by HTS assay
Type: functional, cell-based
measurement.name: EC50 (µM)

input.smiles: CNc1nc(-c2c(-c3ccccc3)[nH]c3ccccc23)cs1
numeric.value: 12.3

---

Item-by-item account of EC50
Biological target: Lutropin-choriogonadotropic hormone receptor (Homo sapiens, UniProt P22888)
Sequence (P22888 whole entry): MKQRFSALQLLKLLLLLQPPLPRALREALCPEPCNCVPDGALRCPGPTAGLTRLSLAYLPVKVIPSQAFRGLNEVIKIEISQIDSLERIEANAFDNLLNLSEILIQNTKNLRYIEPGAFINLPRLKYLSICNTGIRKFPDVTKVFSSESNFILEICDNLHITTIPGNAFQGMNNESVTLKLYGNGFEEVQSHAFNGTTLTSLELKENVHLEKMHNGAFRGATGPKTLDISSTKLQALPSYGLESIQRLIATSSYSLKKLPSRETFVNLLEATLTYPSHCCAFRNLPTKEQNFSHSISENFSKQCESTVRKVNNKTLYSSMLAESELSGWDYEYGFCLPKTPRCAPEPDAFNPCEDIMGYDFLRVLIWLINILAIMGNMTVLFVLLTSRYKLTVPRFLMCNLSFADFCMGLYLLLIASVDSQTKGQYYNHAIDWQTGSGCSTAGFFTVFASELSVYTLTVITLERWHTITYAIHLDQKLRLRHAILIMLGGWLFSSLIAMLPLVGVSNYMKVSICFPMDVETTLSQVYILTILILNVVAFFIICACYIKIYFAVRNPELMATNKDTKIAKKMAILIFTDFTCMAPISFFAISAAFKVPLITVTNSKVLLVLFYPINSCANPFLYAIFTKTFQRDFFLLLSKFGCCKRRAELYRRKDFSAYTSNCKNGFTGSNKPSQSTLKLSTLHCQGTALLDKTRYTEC
Assay: Agonist activity at LHCGR (unknown origin)
measurement.name: EC50

compound: COc1cccc(-c2nc(SC)nc3sc(C(=O)NC(C)(C)C)c(N)c23)c1
result: 0.35 µM
--
compound: COc1ccc(C2Nc3ccccc3C(=O)N2Cc2ccco2)cc1COc1c(C)cc(NC(C)=O)cc1C (stereo unspecified)
result: > 30 µM
--
compound: COc1ccc(C2Nc3ccccc3C(=O)N2Cc2ccco2)cc1COc1c(C)cccc1C (stereo unspecified)
result: 0.48 µM
--
compound: CC(C)N(C(=O)c1cc(-c2ccccc2)nc2ccccc12)C(C)C
result: > 10 µM
--
compound: CC1=C(C(=O)OCc2ccccc2)C(c2ccc(C(F)(F)F)cc2)NC(=O)N1 (stereo unspecified)
result: > 10 µM
--
compound: COc1ccc(C2Nc3ccccc3C(=O)N2Cc2cccnc2)cc1COc1c(C)cccc1C (stereo unspecified)
result: > 30 µM

---

Overview of reported pIC50 across a group of compounds:
Biological target: Thyrotropin receptor (Homo sapiens, UniProt P16473)
Sequence (P16473 whole entry): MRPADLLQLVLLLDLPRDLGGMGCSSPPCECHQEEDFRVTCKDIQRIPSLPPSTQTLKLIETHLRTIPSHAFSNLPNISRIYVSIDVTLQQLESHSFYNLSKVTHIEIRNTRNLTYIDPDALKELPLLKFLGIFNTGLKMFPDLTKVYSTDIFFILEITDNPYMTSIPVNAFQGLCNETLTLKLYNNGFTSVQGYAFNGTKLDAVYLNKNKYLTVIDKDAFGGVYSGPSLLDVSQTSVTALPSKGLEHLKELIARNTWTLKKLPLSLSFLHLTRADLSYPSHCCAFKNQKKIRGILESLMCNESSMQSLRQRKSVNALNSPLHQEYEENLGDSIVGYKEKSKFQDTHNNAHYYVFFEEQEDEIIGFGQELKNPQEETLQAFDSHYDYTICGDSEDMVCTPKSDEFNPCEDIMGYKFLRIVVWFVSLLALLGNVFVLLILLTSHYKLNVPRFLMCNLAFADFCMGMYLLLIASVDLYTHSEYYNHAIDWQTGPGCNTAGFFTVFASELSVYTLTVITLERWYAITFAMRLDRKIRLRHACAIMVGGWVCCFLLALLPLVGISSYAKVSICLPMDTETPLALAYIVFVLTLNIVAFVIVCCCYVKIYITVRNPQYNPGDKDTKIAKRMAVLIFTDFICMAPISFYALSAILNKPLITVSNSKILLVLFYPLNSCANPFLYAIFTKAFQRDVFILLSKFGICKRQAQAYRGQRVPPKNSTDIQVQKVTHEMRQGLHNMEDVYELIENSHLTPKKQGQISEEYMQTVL
Assay: Inverse agonist activity at TSH receptor (unknown origin) stably expressed in HEK293 cells assessed as reduction in TSH-induced cAMP production incubated for 40 mins by ELISA analysis
pIC50: −log10 of the molar value.

compound: COc1ccc(C2Nc3ccccc3C(=O)N2Cc2ccco2)cc1COc1c(C)cc(NC(C)=O)cc1C (configuration not stated)
pIC50: 5.64
--
compound: COc1ccc(C2Nc3ccccc3C(=O)N2Cc2cccnc2)cc1COc1c(C)cccc1C (configuration not stated)
pIC50: 5.46
